These entries and their values trace back to patent US20260250381A1.

- subject.of.test: T1, human TREM2 (human) (UniProt Q9NZC2)
- T1 sequence (looked up): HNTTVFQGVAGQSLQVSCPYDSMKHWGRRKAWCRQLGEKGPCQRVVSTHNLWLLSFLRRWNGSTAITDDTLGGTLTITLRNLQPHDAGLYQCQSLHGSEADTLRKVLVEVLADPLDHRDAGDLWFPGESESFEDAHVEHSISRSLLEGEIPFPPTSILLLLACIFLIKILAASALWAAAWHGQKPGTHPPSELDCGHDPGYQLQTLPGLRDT
- assay.overview: 2nd screen, 100 nM Ab
Below: a set of entries, each annotated with reported Binding Signal (fold over 6E7 parental antibody).
// note: answer is a bare numeric in fold

[[record]]
binder = "6E7 variant V66 (antibody, V domains shown) VH: EVQLVQSGAEVKKPGESLKISCKGSGTSFTSYWIAWVRQMPGKGLEWMGIIYPGDSDTRYSPSFQGQVTISADKSISTAYLQWSSLKASDTAMYFCARQRTFYYDSSDYFDYWGQGTLVTVSS VL: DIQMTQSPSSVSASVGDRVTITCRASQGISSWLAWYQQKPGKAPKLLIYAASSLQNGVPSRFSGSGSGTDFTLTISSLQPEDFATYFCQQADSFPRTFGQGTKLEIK"
reading = 0.74

[[record]]
binder = "6E7 variant V23 (antibody, V domains shown) VH: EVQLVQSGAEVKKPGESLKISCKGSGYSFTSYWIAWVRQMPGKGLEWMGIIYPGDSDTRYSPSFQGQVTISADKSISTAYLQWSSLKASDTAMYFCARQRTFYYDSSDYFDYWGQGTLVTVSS VL: DIQMTQSPSSVSASVGDRVTITCRASQGISSWLAWYQQKPGKAPKLLIYAASSLQNGVPSRFSGSGSGTDFTLTISSLQPEDFATYFCQQADSFPLTFGQGTKLEIK"
reading = 0.4

[[record]]
binder = "6E7 variant V42 (antibody, V domains shown) VH: EVQLVQSGAEVKKPGESLKISCKGSGYSFTSAWIAWVRQMPGKGLEWMGIIYPGDSDTRYSPSFQGQVTISADKSISTAYLQWSSLKASDTAMYFCARQRTFYYDSSDYFDYWGQGTLVTVSS VL: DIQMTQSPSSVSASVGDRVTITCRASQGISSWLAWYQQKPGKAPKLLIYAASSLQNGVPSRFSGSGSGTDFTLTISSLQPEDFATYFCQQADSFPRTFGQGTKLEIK"
reading = 0.41

[[record]]
binder = "6E7 variant V43 (antibody, V domains shown) VH: EVQLVQSGAEVKKPGESLKISCKGSGYSFTSYWIAWVRQMPGKGLEWMGIIYPGDSGTRYSPSFQGQVTISADKSISTAYLQWSSLKASDTAMYFCARQRTFYYDSSDYFDYWGQGTLVTVSS VL: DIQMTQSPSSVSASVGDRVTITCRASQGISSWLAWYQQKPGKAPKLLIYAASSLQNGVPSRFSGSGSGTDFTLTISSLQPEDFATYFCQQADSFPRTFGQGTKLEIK"
reading = 0.33

[[record]]
binder = "6E7 variant V9 (antibody, V domains shown) VH: EVQLVQSGAEVKKPGESLKISCKGSGYSFTSYWIAWVRQMPGKGLEWMGIIYPGDSDTRYSPSFQGQVTISADKSISTAYLQWSSLKASDTAMYFCARQRGFYYDSSDYFDYWGQGTLVTVSS VL: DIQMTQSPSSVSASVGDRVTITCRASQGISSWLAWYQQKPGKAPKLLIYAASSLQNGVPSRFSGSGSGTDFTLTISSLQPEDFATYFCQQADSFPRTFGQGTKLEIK"
reading = 0.54

[[record]]
binder = "6E7 variant V69 (antibody, V domains shown) VH: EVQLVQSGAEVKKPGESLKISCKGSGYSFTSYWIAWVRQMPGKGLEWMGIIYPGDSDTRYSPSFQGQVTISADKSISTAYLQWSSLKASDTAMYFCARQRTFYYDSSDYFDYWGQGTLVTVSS VL: DIQMTQSPSSVSASVGDRVTITCRASQGISSYLAWYQQKPGKAPKLLIYAASSLQNGVPSRFSGSGSGTDFTLTISSLQPEDFATYFCQQADSFPRTFGQGTKLEIK"
reading = 0.4

[[record]]
binder = "6E7 variant V56 (antibody, V domains shown) VH: EVQLVQSGAEVKKPGESLKISCKGSGYSFTSYWIAWVRQMPGKGLEWMGIIYPGDSDTRYQPSFQGQVTISADKSISTAYLQWSSLKASDTAMYFCARQRTFYYDSSDYFDYWGQGTLVTVSS VL: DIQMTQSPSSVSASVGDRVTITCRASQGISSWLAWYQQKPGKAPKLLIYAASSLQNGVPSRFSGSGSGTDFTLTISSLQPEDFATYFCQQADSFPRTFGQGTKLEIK"
reading = 0.59

[[record]]
binder = "6E7 variant V31 (antibody, V domains shown) VH: EVQLVQSGAEVKKPGESLKISCKGSGYSFTSYWIAWVRQMPGKGLEWMGIIYPGDSETRYSPSFQGQVTISADKSISTAYLQWSSLKASDTAMYFCARQRTFYYDSSDYFDYWGQGTLVTVSS VL: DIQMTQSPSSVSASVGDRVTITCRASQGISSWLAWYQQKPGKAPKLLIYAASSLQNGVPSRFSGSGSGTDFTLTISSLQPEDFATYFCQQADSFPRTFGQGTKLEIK"
reading = 0.73


Task: Endpoint output: Binding Signal (fold over 6E7 parental antibody) of 6E7 variant V59 (antibody, V domains shown) VH: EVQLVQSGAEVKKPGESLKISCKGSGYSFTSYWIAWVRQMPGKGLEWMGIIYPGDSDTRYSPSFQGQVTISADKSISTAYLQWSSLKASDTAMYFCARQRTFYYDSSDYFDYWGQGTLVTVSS VL: DIQMTQSPSSVSASVGDRVTITCRASQGISSWLAWYQQKPGKAPKLLIYAASSLQNGVPSRFSGSGSGTDFTLTISSLQPEDFATYFCMQADSFPRTFGQGTKLEIK . Value?
Output: 0.6

Task: I would be grateful if you could share the reported Binding Signal (fold over 6E7 parental antibody) for 6E7 variant V91 (antibody, V domains shown) VH: EVQLVQSGAEVKKPGESLKISCKGSGYSFTSYWIAWVRQMPGKGLEWMGIIYPDDSDTRYSPSFQGQVTISADKSISTAYLQWSSLKASDTAMYFCARQRTFYYDSSDYFDYWGQGTLVTVSS VL: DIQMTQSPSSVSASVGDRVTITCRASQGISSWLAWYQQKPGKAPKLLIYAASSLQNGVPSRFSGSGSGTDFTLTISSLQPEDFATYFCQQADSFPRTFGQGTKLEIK .
Output: 0.61
